Test: viability loss with induced miR-34 in A549 – imaging, A549 dox-inducible miR-34, nuclei and caspase counts, primary screen (AID 1347080); further: test concentration not given here
Settings: A549 miR-34 inducible, Hoechst nuclei count, 48 h; measured here: total cells with miR-34 induction; stronger effect = lower value

{"molecule": "CCCCS(=N)(=O)CC[C@H](N)C(=O)O (stereo partly specified)", "cell count": 9810}
{"molecule": "O=C1CC(c2ccc(O)cc2)Oc2cc(O)ccc21 (stereo unspecified)", "cell count": 8540}
{"molecule": "Cc1ccc(-n2sc(=O)n(Cc3ccc(F)cc3)c2=O)cc1", "cell count": 8430}
{"molecule": "CCCC[C@@]1(C2CCCC2)Cc2cc(OCC(=O)O)c(Cl)c(Cl)c2C1=O", "cell count": 8870}
{"molecule": "CC(C)(C)NCC(O)COc1cccc2c1CC(O)C(O)C2 (stereo unspecified)", "cell count": 8980}
{"molecule": "CSc1n[nH]c(-c2ccc(Cl)cc2)n1", "cell count": 8540}
{"molecule": "Cc1ccc(C(=O)N(CCCN)C(c2nc3cc(Cl)ccc3c(=O)n2Cc2ccccc2)C(C)C)cc1 (stereo unspecified)", "cell count": 1340}
{"molecule": "N#CC(=Cc1ccc(O)c(O)c1)C(=O)NCc1ccccc1", "cell count": 6440}
{"molecule": "CCOC(=O)C1=C(C)NC(C)=C(C(=O)OCC)C1c1c(F)c(F)c(F)c(F)c1F", "cell count": 5220}
{"molecule": "N[C@@H](Cc1ccc(F)cc1)C(=O)O", "cell count": 9710}
{"molecule": "O=C(O)C1=COC(OC2OC(CO)C(O)C(O)C2O)[C@@H]2C(CO)=CC[C@H]12 (stereo partly specified)", "cell count": 9820}
